Molecular target: JAK 1 (Homo sapiens (Human))
Sequence (P23458 whole entry): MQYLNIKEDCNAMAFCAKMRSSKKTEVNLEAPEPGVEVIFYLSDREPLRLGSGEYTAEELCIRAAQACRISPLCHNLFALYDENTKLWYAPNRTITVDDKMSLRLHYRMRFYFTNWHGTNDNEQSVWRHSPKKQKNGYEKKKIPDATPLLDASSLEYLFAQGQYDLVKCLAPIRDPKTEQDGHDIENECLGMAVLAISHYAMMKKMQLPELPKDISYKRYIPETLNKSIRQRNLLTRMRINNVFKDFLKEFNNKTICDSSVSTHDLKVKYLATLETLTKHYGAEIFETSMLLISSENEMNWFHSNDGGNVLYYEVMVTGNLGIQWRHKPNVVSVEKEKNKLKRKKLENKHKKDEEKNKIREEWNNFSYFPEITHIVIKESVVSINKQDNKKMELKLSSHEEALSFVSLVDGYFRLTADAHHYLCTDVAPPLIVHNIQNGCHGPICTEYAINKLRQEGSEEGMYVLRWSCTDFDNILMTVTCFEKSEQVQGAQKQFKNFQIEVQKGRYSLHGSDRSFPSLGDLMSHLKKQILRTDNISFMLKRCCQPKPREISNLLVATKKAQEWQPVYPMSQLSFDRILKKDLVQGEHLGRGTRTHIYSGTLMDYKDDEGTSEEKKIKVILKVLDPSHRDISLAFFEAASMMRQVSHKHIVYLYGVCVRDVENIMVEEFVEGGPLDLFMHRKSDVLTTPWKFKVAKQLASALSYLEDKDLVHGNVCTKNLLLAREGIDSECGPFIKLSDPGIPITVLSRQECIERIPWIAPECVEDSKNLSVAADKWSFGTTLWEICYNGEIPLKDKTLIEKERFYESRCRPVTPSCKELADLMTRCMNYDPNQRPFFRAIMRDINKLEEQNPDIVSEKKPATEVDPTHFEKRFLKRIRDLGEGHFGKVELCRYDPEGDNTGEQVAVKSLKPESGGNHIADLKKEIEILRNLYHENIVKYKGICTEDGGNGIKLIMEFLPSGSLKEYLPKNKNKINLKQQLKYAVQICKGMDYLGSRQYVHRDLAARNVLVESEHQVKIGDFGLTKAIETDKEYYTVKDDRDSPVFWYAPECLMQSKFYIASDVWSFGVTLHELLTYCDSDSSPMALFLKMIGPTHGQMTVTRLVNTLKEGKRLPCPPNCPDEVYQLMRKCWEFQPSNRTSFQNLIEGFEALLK
Assay: Biochemical potency on JAK1, TR-FRET LANCE Ultra kinase assay (compounds 1-92)
Settings: ATP at Km, read-out: JAK1 inhibitory activity (pIC50 class) (converted)
Catalogue of IC50 values

Solved entries:
# ITEM SMILES, TGT, IC50
rows = [
    ("COc1cc(NS(C)(=O)=O)ccc1-n1nc(NCCN2CCOCC2)c2cnc(Nc3ncc[nH]c3=O)cc21", "JAK 1 (Homo sapiens (Human))", "≤ 5.01 nM"),
    ("CCCS(=O)(=O)Nc1ccc(-n2nc(CNC)c3cnc(-c4cnn5cccnc45)cc32)c(OC)c1", "JAK 1 (Homo sapiens (Human))", "≤ 5.01 nM"),
    ("COc1cc(CNS(C)(=O)=O)ccc1-n1nc(NCCN2CCOCC2)c2cnc(-c3cnn4cccnc34)cc21", "JAK 1 (Homo sapiens (Human))", "≤ 5.01 nM"),
]

Which IC50 value belongs to CNCC(=O)Nc1nn(-c2ccc(NS(C)(=O)=O)cc2OC)c2cc(-c3cnn4cccnc34)ncc12 ?
≤ 5.01 nM

Recorded IC50 for COc1cc(CNS(C)(=O)=O)ccc1-n1nc(NCCN2CCCCC2)c2cnc(-c3cnn4cccnc34)cc21 , please?
5.01 to 50.1 nM

Need IC50, item COc1cc(CN(C)S(C)(=O)=O)ccc1-n1nc(C)c2cnc(-c3cnn4cccnc34)cc21
≤ 5.01 nM
